# Assay Notes: Molar enthalpy of transition or fusion
# Experimental Conditions: Nematic liquid crystal; DSC
Quantity: Molar enthalpy of transition or fusion (kcal/mol)

Reference set (2 entries):
[Q] Quick check: Molar enthalpy of transition or fusion of CCCCCCCCc1ccc(C(=O)O)cc1 [4-octylbenzoic acid] ?
[A] 0.287

[Q] Quick check: Molar enthalpy of transition or fusion of CCCCCCCc1ccc(C(=O)O)cc1 [4-heptylbenzoic acid] ?
[A] 0.239

[a] CCCCc1ccc(C(=O)O)cc1 [4-butylbenzoic acid]
[b] CCCCCc1ccc(C(=O)O)cc1 [4-pentylbenzoic acid]
[Q] Which numeric Molar enthalpy of transition or fusion is bigger, that of a or that of b ? Reply with the label of the item you choose.
[A] b
(b: 0.263 kcal/mol, a: 0.182 kcal/mol)
